- Test system: CAOV3
- TEST_METHOD_NOTES: Primary qHTS to identify gynecologic anti-cancer compounds using libraries of approved drugs and bioactive compounds (AID 1345084); further: nearly all actives have a fitted effect of over 55% in size
- CONDITION_CONTEXT: Gynecologic cancer cell panel viability, ATPlite luminescence, 48 h; series mostly up to 57.5 µM
Records with an inconclusive call do not appear. Calls of active or inactive are those of the source. The call rests on the fitted dose curve; in most records, active means well fitted cell-killing curve with a large enough effect; inconclusive means small, poorly fitted or top-dose-only effect, or effect the other way; inactive means flat fitted curve, though single readings scatter.
Classes used: true (active), false (inactive)

>  <COMPOUND>
CC(C)S(=O)(=O)NC[C@@H]1CC(c2ccc(N3CCCC3)c(F)c2)=NO1

>  <LABEL_VALUE>
false

$$$$
>  <COMPOUND>
CC(C)(CO)c1cc2cc(NC(=O)C3(c4ccc5c(c4)OC(F)(F)O5)CC3)c(F)cc2n1CC(O)CO (configuration not stated)

>  <LABEL_VALUE>
false

$$$$
>  <COMPOUND>
O=C(NCCCc1ccccc1)C1CCC(CNS(=O)(=O)c2cccc3nsnc23)CC1 (configuration not stated)

>  <LABEL_VALUE>
false

$$$$
>  <COMPOUND>
COc1ccc(-c2csc(NC(=O)[C@H]3CCCCN3S(=O)(=O)c3ccc(C)cc3)n2)cc1

>  <LABEL_VALUE>
false

$$$$
>  <COMPOUND>
COC(=O)CC1OC(C)C2=C(O)c3c(O)cccc3C(=O)C23OC13 (configuration not stated)

>  <LABEL_VALUE>
true

$$$$
>  <COMPOUND>
CC(C)=CCC[C@](C)(O[C@@H]1O[C@H](CO[C@@H]2OC[C@@H](O)[C@H](O)[C@H]2O)[C@@H](O)[C@H](O)[C@H]1O)[C@H]1CC[C@]2(C)[C@@H]1[C@H](O)C[C@@H]1[C@@]3(C)CC[C@H](O[C@@H]4O[C@H](CO)[C@@H](O)[C@H](O)[C@H]4O)C(C)(C)[C@@H]3CC[C@]12C

>  <LABEL_VALUE>
false

$$$$
>  <COMPOUND>
CC(=O)NC(C)c1cnc(-c2cnc(Oc3ccc(OC(C)C)cc3)s2)s1 (configuration not stated)

>  <LABEL_VALUE>
false

$$$$
>  <COMPOUND>
CCc1ccc(-c2nc(CSCC(=O)NCCc3ccccc3)c(C)o2)cc1

>  <LABEL_VALUE>
false

$$$$
>  <COMPOUND>
CC(=O)c1c(C)cc2cccc(O)c2c1O[C@@H]1O[C@H](CO)[C@@H](O)[C@H](O)[C@H]1O

>  <LABEL_VALUE>
false

$$$$
>  <COMPOUND>
CC(=O)OC1CCC2(C)C(CCC3(C)C2CC=C2C4C(C)C(C)CCC4(C)CCC23C)C1(C)C(=O)O (configuration not stated)

>  <LABEL_VALUE>
false

$$$$
>  <COMPOUND>
CC1CCCC(O)CCC/C=C/c2cc(OS(=O)(=O)O)cc(O)c2C(=O)O1 (configuration not stated)

>  <LABEL_VALUE>
false

$$$$
>  <COMPOUND>
O=C(Nc1nc2cc(C(F)(F)F)cc(NC3CC3)n2n1)c1cccnc1

>  <LABEL_VALUE>
false

$$$$
>  <COMPOUND>
COc1ccc(CCCN2CCC(COC(c3ccccc3)c3ccccc3)CC2)cc1

>  <LABEL_VALUE>
false

$$$$
>  <COMPOUND>
COC(=O)c1ccc2c(c1)nc(NC(=O)c1ccccc1)n2CCCc1ccccc1

>  <LABEL_VALUE>
false

$$$$
>  <COMPOUND>
CCCSc1nc(N[C@@H]2C[C@H]2c2ccc(F)c(F)c2)c2nnn([C@@H]3C[C@H](OCCO)[C@@H](O)[C@H]3O)c2n1

>  <LABEL_VALUE>
false

$$$$
>  <COMPOUND>
Fc1ccc(-c2nc(-c3ccccc3F)[nH]c2-c2ccncc2)cc1

>  <LABEL_VALUE>
false

$$$$
>  <COMPOUND>
COc1cc(C(=O)NCC2(N(C)C)CCCC2)cc(OC)c1OCc1ccccc1

>  <LABEL_VALUE>
false

$$$$

---

- SYSTEM: Phospholipid hydroperoxide glutathione peroxidase GPX4 (Homo sapiens)
- TEST_METHOD_NOTES: Primary qHTS Assay for Inhibitors of Recombinant Selenoprotein Glutathione Peroxidase 4 (GPX4) (AID 1845192); further: nearly all actives have a fitted effect of over 65% in size
- CONDITION_CONTEXT: recombinant GPX4, GR-coupled NADPH fluorescence, 15 min; series mostly up to 50 µM
Inconclusive results are not listed. Active and inactive are the calls of the source. Calls come from the whole dose curve; as a rule, active = well fitted inhibition curve with a large enough effect; inconclusive = small, poorly fitted or top-dose-only effect; inactive = flat fitted curve, though single readings scatter.
Outcome codes: active, inactive

>  <COMPOUND>
CC1(C)S[C@@H]2[C@H](NC(=O)C(C(=O)Oc3ccc4c(c3)CCC4)c3ccccc3)C(=O)N2[C@H]1C(=O)O (stereo not given in full)

>  <LABEL_VALUE>
active

$$$$
>  <COMPOUND>
Cc1c(N)nc(C(CC(N)=O)NCC(N)C(N)=O)nc1C(=O)NC(C(=O)NC(C)C(O)C(C)C(=O)NC(C(=O)NCCc1nc(-c2nc(C(=O)NCCCN[C@@H](C)c3ccccc3)cs2)cs1)C(C)O)C(O[C@@H]1O[C@@H](CO)[C@@H](O)[C@H](O)[C@@H]1O[C@H]1O[C@H](CO)[C@@H](O)[C@H](OC(N)=O)[C@@H]1O)c1cnc[nH]1 (stereo not given in full)

>  <LABEL_VALUE>
inactive

$$$$
>  <COMPOUND>
CCC/C=C/C=C/C1CC(O)C2(O)C(=O)OCC12 (stereo not given)

>  <LABEL_VALUE>
inactive

$$$$
>  <COMPOUND>
C/C=C/C=C/C=C/C(=O)O[C@@H]1C=C(CO)C(O)(C(=O)OC)[C@@]2(C)CCCC(C)(C)C12 (stereo not given in full)

>  <LABEL_VALUE>
inactive

$$$$
>  <COMPOUND>
Cc1csc(N(C(=O)CSc2ccc(-c3ccccc3)nn2)C2CC2)n1

>  <LABEL_VALUE>
inactive

$$$$

---

- TEST_METHOD_NOTES: Primary fluorescence-based thiol-reactive (MSTI) qHTS assay for identification of artifact compounds. (AID 1845221); further: nearly all actives have a fitted effect of over 65% in size
- CONDITION_CONTEXT: MSTI thiol-reactivity probe, 1 h; series mostly up to 53.8 µM
Inconclusive results are not listed. Active and inactive are the calls of the source. Calls follow the shape of the dose curve; as a rule, active = well fitted inhibition curve with a large enough effect; inconclusive = small, poorly fitted or top-dose-only effect; inactive = no such curve, though single readings can be large or run the other way.
Labels: label 1 for active, label 0 for inactive

>  <COMPOUND>
COc1cc2ncc(-c3ccccc3)nc2cc1OC

>  <LABEL_VALUE>
label 0

$$$$
>  <COMPOUND>
COc1cc2ncnc(Oc3ccc(CC(=O)Nc4cnn(C(C)C)c4)cc3)c2cc1OC

>  <LABEL_VALUE>
label 0

$$$$
>  <COMPOUND>
Cc1[nH]c2ccccc2c1CCNC(=O)c1cccs1

>  <LABEL_VALUE>
label 1

$$$$
>  <COMPOUND>
Cc1cc(NC(=O)c2cccc(NC(=O)/C=C/CN(C)C)c2)ccc1Nc1nccc(-c2cccnc2)n1

>  <LABEL_VALUE>
label 0

$$$$
>  <COMPOUND>
COC(=O)c1ccnc(-c2cc(C(=O)Nc3ccc(C4(N)CC4)cc3)ccn2)c1

>  <LABEL_VALUE>
label 0

$$$$
>  <COMPOUND>
Cc1cc2ncc(C(=O)NCC(C)(C)NCC(=O)N3CCC[C@H]3C#N)cn2n1

>  <LABEL_VALUE>
label 0

$$$$
>  <COMPOUND>
CCc1cc(C(N)=O)ccc1-n1nc(C(C)C)c2c(-n3cnc(-c4cnn(C)c4)c3)ccnc21

>  <LABEL_VALUE>
label 0

$$$$
>  <COMPOUND>
C/C1=C\[C@@H](C)C[C@@H](C)[C@@H](Cc2cnco2)OC(=O)/C(C)=C/[C@@H](C)C[C@@H](C)[C@@H](Cc2cnco2)OC1=O

>  <LABEL_VALUE>
label 0

$$$$
>  <COMPOUND>
COC(CCc1ccc(O)cc1)CC(=O)CCc1ccc(O)cc1 (centres undefined)

>  <LABEL_VALUE>
label 0

$$$$
>  <COMPOUND>
C=C1C(=O)OC2C1CCC1(C)C(O)CCC(=C)C21 (centres undefined)

>  <LABEL_VALUE>
label 1

$$$$
>  <COMPOUND>
COc1cc(F)c(C(C)C)cc1-c1ccc(C(F)(F)F)cc1CN1C(=O)OC(c2cc(C(F)(F)F)cc(C(F)(F)F)c2)C1C (centres undefined)

>  <LABEL_VALUE>
label 0

$$$$
>  <COMPOUND>
CC1OC(=O)C[C@@H]2C(C(=O)O)=CO[C@@H](O[C@H]3O[C@H](CO)[C@@H](O)[C@H](O)[C@H]3O)[C@H]12 (some centres undefined)

>  <LABEL_VALUE>
label 0

$$$$
>  <COMPOUND>
Cn1cc(-c2ccc(S(=O)(=O)n3ccc(/C=C/C(=O)Nc4ccccc4N)c3)cc2)cn1

>  <LABEL_VALUE>
label 0

$$$$
>  <COMPOUND>
Nc1nc2c(nc(Br)n2[C@@H]2O[C@@H]3COP(=O)(O)O[C@H]3[C@H]2O)c(=O)[nH]1

>  <LABEL_VALUE>
label 0

$$$$
>  <COMPOUND>
OC(c1ccc(-c2ccc(CN3CCN(Cc4ccncc4)CC3)cc2)c(F)c1)(C(F)(F)F)C(F)(F)F

>  <LABEL_VALUE>
label 0

$$$$
>  <COMPOUND>
COc1ccc(-c2cnc3c(-c4cccc5ncccc45)cnn3c2)cc1

>  <LABEL_VALUE>
label 0

$$$$
>  <COMPOUND>
OC(CC1c2ccccc2-c2cncn21)C1CCCCC1 (centres undefined)

>  <LABEL_VALUE>
label 0

$$$$
>  <COMPOUND>
CC(=O)C1=CCC2C3CC=C4CC(O)CC(O)C4(C)C3C(O)CC12C (centres undefined)

>  <LABEL_VALUE>
label 0

$$$$
>  <COMPOUND>
C=CC1(C)CC(O)C(C(=C)C(=O)OC)C(O)C1C(=C)CO (centres undefined)

>  <LABEL_VALUE>
label 0

$$$$

Origin of values: PubChem BioAssay (NCATS)
